# SUBJECT OF TEST: RORc (Homo sapiens, UniProt P51449)
# Construct: host or cells: E. coli
# RUN DESCRIPTION: In Vitro RORc Ligand Binding Assay
# STUDY CONDITIONS: IC50 values for RORc
pIC50: −log10 of the molar value.
QUANTITY MEASURED: pIC50

(P) CC(NC(=O)c1cncnc1)c1cc(F)c(CN2[C@@H](C)CC[C@H](c3ccccc3)S2(=O)=O)cc1F (stereo in doubt)
(Q) C[C@H]1CC[C@H](c2ccccc2)S(=O)(=O)N1Cc1ccc(C2(COCC3COC3)CCOCC2)cc1F
Consider entries P and Q . Which has the numerically lower pIC50? Output the label that corresponds to your choice.
Q
(Q: 7.35, P: 8.08)

----------
# SUBJECT OF TEST: RORc (Homo sapiens, UniProt P51449)
# Sequence (P51449 269-508 limits assumed): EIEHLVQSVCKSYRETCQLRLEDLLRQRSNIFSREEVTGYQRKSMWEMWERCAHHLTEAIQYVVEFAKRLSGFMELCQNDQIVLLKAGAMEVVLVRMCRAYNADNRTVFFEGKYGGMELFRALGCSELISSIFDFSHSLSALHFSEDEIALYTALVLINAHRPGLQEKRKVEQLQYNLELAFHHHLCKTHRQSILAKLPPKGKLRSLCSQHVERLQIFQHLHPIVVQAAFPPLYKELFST
pIC50: −log10 of the molar value.
QUANTITY MEASURED: pIC50

[
  {
    "MOLECULE": "COc1cc(C(=O)NC(C)c2cc(F)c(CN3[C@@H](C)CC[C@H](c4ccccc4)S3(=O)=O)cc2F)on1 (stereo in doubt) [Compound 74]",
    "pIC50": 8.14
  },
  {
    "MOLECULE": "C[C@H]1CC[C@H](c2ccccc2)S(=O)(=O)N1Cc1ccc(C2(C(=O)NC3(CO)CC3)CCOCC2)cc1F [Compound 35]",
    "pIC50": 7.37
  },
  {
    "MOLECULE": "C[C@H]1CC[C@H](c2ccccc2)S(=O)(=O)N1Cc1cc(F)c(C2(C(=O)N[C@H]3C[C@H](O)C3)CCOCC2)cc1F [Compound 37]",
    "pIC50": 7.32
  }
]

(P) CC(NC(=O)c1cnccn1)c1cc(F)c(CN2[C@@H](C)CC[C@H](c3ccccc3)S2(=O)=O)cc1F (stereo in doubt) [Compound 57]
(Q) CC(NC(=O)c1nc(N)n[nH]1)c1cc(F)c(CN2[C@@H](C)CC[C@H](c3ccccc3)S2(=O)=O)cc1F (stereo in doubt) [Compound 71]
Consider entries P and Q . Which has the numerically lower pIC50? Output the label that corresponds to your choice.
P

(A) CC(NCC(N)=O)c1cc(F)c(CN2[C@@H](C)CC[C@H](c3ccccc3)S2(=O)=O)cc1F (some centres unmarked) [Compound 29]
(B) C[C@H]1CC[C@H](c2ccccc2)S(=O)(=O)N1Cc1ccc(C2(C(=O)NC3(C#N)CC3)CCOCC2)cc1F (stereo in doubt) [Compound 36]
Consider entries A and B . Which has the numerically lower pIC50? Output the label that corresponds to your choice.
B
(B: 6.63, A: 7.25)

----------
# SUBJECT OF TEST: RORc (Homo sapiens)
QUANTITY MEASURED: IC50 (nM)

// worked examples, IC50 included
[
  {
    "COMPOUND": "C[C@H]1CC[C@H](c2ccccc2)S(=O)(=O)N1Cc1cc(F)c(C2(OCC(=O)NC3CC3)CCOCC2)cc1F [Compound 41]",
    "IC50 [nM]": 6.8
  },
  {
    "COMPOUND": "C[C@H]1CC[C@H](c2ccccc2)S(=O)(=O)N1Cc1cc(F)c([C@@H](CCC#N)C(N)=O)cc1F [Compound 17]",
    "IC50 [nM]": 82.7
  }
]

(I) Cc1nocc1C(=O)NC(C)c1cc(F)c(CN2[C@@H](C)CC[C@H](c3ccccc3)S2(=O)=O)cc1F (stereo in doubt) [Compound 60]
(II) Cc1n[nH]cc1C(=O)NC(C)c1cc(F)c(CN2[C@@H](C)CC[C@H](c3ccccc3)S2(=O)=O)cc1F (stereo in doubt) [Compound 53]
Which shows the larger IC50 value: I or II ? Output the label that corresponds to your choice.
I
